Quick list: shrunken log2 fold change per entry.
Tested on: Escherichia coli TOP10
Assay: shrunken log2 fold change of peptide-encoding DNA abundance (4.5 h post-induction vs induction); higher = less antimicrobial activity (less host growth inhibition)
Conditions: time post-induction: 4.5 h; library: site-saturation at positions 5, 18, 19, 20

>  <RESIDUE_SEQUENCE>
RRIRNRPPRLPRPRPRPDEHPRP

>  <SYSTEM_NAME>
Escherichia coli TOP10

>  <shrunken log2 fold change>
-0.415

$$$$
>  <RESIDUE_SEQUENCE>
RRIRQRPPRLPRPRPRPPPNPRP

>  <SYSTEM_NAME>
Escherichia coli TOP10

>  <shrunken log2 fold change>
0.508

$$$$
>  <RESIDUE_SEQUENCE>
RRIRDRPPRLPRPRPRPNDAPRP

>  <SYSTEM_NAME>
Escherichia coli TOP10

>  <shrunken log2 fold change>
0.0621

$$$$
>  <RESIDUE_SEQUENCE>
RRIRFRPPRLPRPRPRPALQPRP

>  <SYSTEM_NAME>
Escherichia coli TOP10

>  <shrunken log2 fold change>
-0.142

$$$$
>  <RESIDUE_SEQUENCE>
RRIRQRPPRLPRPRPRPMLAPRP

>  <SYSTEM_NAME>
Escherichia coli TOP10

>  <shrunken log2 fold change>
0.0967

$$$$
>  <RESIDUE_SEQUENCE>
RRIRFRPPRLPRPRPRPAMLPRP

>  <SYSTEM_NAME>
Escherichia coli TOP10

>  <shrunken log2 fold change>
0.0665

$$$$
>  <RESIDUE_SEQUENCE>
RRIRHRPPRLPRPRPRPVCWPRP

>  <SYSTEM_NAME>
Escherichia coli TOP10

>  <shrunken log2 fold change>
0.268

$$$$
>  <RESIDUE_SEQUENCE>
RRIRGRPPRLPRPRPRPNEKPRP

>  <SYSTEM_NAME>
Escherichia coli TOP10

>  <shrunken log2 fold change>
0.0813

$$$$

Request: Value lookup for shrunken log2 fold change; key = RRIRPRPPRLPRPRPRPHLSPRP
Result: -0.142

Request: Again, but for RRIRSRPPRLPRPRPRPWYLPRP
Result: -0.617

Request: Moving on to RRIRRRPPRLPRPRPRPQQWPRP
Result: 0.0704

Request: And then RRIRVRPPRLPRPRPRPMTIPRP , what is it?
Result: -0.435

Request: What about this sequence? RRIRQRPPRLPRPRPRPYYRPRP
Result: -0.124

----------
Reported shrunken log2 fold change values for a set of sequences
Test system: Escherichia coli TOP10
Assay: shrunken log2 fold change of peptide-encoding DNA abundance (4.5 h post-induction vs induction); higher = less antimicrobial activity (less host growth inhibition)
Settings: time post-induction: 4.5 h; library: site-saturation at positions 5, 18, 19, 20
# print the numeric value only

Would you please look over these solved cases?
>  <RESIDUE_SEQUENCE>
RRIRYRPPRLPRPRPRPDAFPRP

>  <OBSERVED_RESULT>
-1.27

$$$$
>  <RESIDUE_SEQUENCE>
RRIRERPPRLPRPRPRPQLLPRP

>  <OBSERVED_RESULT>
-0.324

$$$$
>  <RESIDUE_SEQUENCE>
RRIRPRPPRLPRPRPRPQSQPRP

>  <OBSERVED_RESULT>
-0.00349

$$$$

Request: Need shrunken log2 fold change, item RRIRQRPPRLPRPRPRPIFHPRP
Result: -0.176

----------
Tested on: Escherichia coli TOP10
Assay: shrunken log2 fold change of peptide-encoding DNA abundance (4.5 h post-induction vs induction); higher = less antimicrobial activity (less host growth inhibition)
Conditions: time post-induction: 4.5 h; library: site-saturation at positions 5, 18, 19, 20
The entries below come with measured shrunken log2 fold change values attached.
API doc: respond with a numeric literal and nothing else, no unit.

These recorded examples may help you get a feel for the data.
>  <RESIDUE_SEQUENCE>
RRIRWRPPRLPRPRPRPWRLPRP

>  <OBSERVED_RESULT>
-0.172

$$$$
>  <RESIDUE_SEQUENCE>
RRIRDRPPRLPRPRPRPWRTPRP

>  <OBSERVED_RESULT>
-0.0162

$$$$
>  <RESIDUE_SEQUENCE>
RRIRPRPPRLPRPRPRPLEMPRP

>  <OBSERVED_RESULT>
0.0597

$$$$
>  <RESIDUE_SEQUENCE>
RRIRVRPPRLPRPRPRPEQHPRP

>  <OBSERVED_RESULT>
0.262

$$$$
>  <RESIDUE_SEQUENCE>
RRIRCRPPRLPRPRPRPVDKPRP

>  <OBSERVED_RESULT>
-0.184

$$$$
>  <RESIDUE_SEQUENCE>
RRIRQRPPRLPRPRPRPGAQPRP

>  <OBSERVED_RESULT>
0.528

$$$$

Request: Endpoint output: shrunken log2 fold change of RRIRDRPPRLPRPRPRPYWDPRP . Value?
Result: -0.766

Request: Subsequent entry: RRIRPRPPRLPRPRPRPSVNPRP
Result: -0.44

Request: Consider next the sequence RRIRWRPPRLPRPRPRPLMWPRP in the same way.
Result: 0.173

Request: Same for RRIRMRPPRLPRPRPRPAYMPRP
Result: -0.0929

Request: Input RRIRTRPPRLPRPRPRPRRHPRP
Result: 0.0424

Request: // repeat for RRIRDRPPRLPRPRPRPFPVPRP and report
Result: -0.0955

Request: Repeat for the following sequence: RRIRDRPPRLPRPRPRPHQHPRP
Result: -0.308

Request: For RRIRERPPRLPRPRPRPISYPRP then?
Result: -0.0746

Request: RRIRVRPPRLPRPRPRPLQWPRP , same question.
Result: 0.209

----------
System: Escherichia coli TOP10
Test: shrunken log2 fold change of peptide-encoding DNA abundance (4.5 h post-induction vs induction); higher = less antimicrobial activity (less host growth inhibition)
Settings: time post-induction: 4.5 h; library: site-saturation at positions 5, 18, 19, 20
READOUT_TYPE: shrunken log2 fold change
Could you respond with only the numeric value?

>  <RESIDUE_SEQUENCE>
RRIRLRPPRLPRPRPRPQDVPRP

>  <SYSTEM_NAME>
Escherichia coli TOP10

>  <shrunken log2 fold change>
-0.0265

$$$$

Request: Data request, read-out shrunken log2 fold change, for RRIRKRPPRLPRPRPRPDGSPRP
Result: 0.132

Request: Follow-up item: RRIRFRPPRLPRPRPRPVNVPRP
Result: -0.404

Request: Also RRIRMRPPRLPRPRPRPMHDPRP , if possible.
Result: 0.192

Request: Thanks! And RRIRKRPPRLPRPRPRPKLMPRP ?
Result: 0.267

Request: Lookup RRIRCRPPRLPRPRPRPLIEPRP
Result: -0.0593

Request: What about RRIRARPPRLPRPRPRPQCFPRP ?
Result: 0.1

Request: Can you handle RRIRRRPPRLPRPRPRPYMIPRP next?
Result: -0.263

Request: Now try RRIRHRPPRLPRPRPRPQDCPRP .
Result: -0.01

----------
Test system: Escherichia coli TOP10;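 also: peptides expressed intracellularly from a pBAD plasmid library in pooled LB shake-flask culture, induced with 0.3% L-arabinose, DNA abundance read by NGS, three biological replicates, DESeq2 with apeglm shrinkage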
Experiment: shrunken log2 fold change of peptide-encoding DNA abundance (4.5 h post-induction vs induction); higher = less antimicrobial activity (less host growth inhibition)
Settings: time post-induction: 4.5 h; library: site-saturation at positions 5, 18, 19, 20
shrunken log2 fold change values for the sequences below.
// print number alone

>  <RESIDUE_SEQUENCE>
RRIRCRPPRLPRPRPRPMVLPRP

>  <shrunken log2 fold change>
-0.388

$$$$
>  <RESIDUE_SEQUENCE>
RRIRKRPPRLPRPRPRPLIWPRP

>  <shrunken log2 fold change>
0.761

$$$$
>  <RESIDUE_SEQUENCE>
RRIRNRPPRLPRPRPRPDSNPRP

>  <shrunken log2 fold change>
-0.0886

$$$$
>  <RESIDUE_SEQUENCE>
RRIRHRPPRLPRPRPRPRSFPRP

>  <shrunken log2 fold change>
-0.0488

$$$$
>  <RESIDUE_SEQUENCE>
RRIRFRPPRLPRPRPRPHVCPRP

>  <shrunken log2 fold change>
-0.0299

$$$$
>  <RESIDUE_SEQUENCE>
RRIRVRPPRLPRPRPRPGTYPRP

>  <shrunken log2 fold change>
-0.166

$$$$

Request: Notebook entry, Escherichia coli TOP10 assay: shrunken log2 fold change of RRIRERPPRLPRPRPRPWPFPRP = ?
Result: -0.0819

Request: Another sequence to check: RRIRSRPPRLPRPRPRPAFLPRP
Result: -0.0125

Request: Lookup RRIRDRPPRLPRPRPRPSCDPRP
Result: -0.0948

Request: Again, but for RRIRYRPPRLPRPRPRPNQGPRP
Result: -0.00893

The origin of these recorded values is the supplement of paper PMC9112550.
